Each recorded value in this set is attributed to the RNAGym collection of RNA variant scans (doi:10.1093/molbev/msab373).

B1: Azoarcus group I ribozyme (parent)
chain: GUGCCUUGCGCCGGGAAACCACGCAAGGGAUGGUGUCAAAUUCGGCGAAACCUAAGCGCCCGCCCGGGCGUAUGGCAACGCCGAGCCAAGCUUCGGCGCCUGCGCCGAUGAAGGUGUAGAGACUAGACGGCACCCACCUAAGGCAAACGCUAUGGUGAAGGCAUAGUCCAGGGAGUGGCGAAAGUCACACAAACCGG

- Variants of: B1
- testMethodNotes: reverse-splicing fitness (ratio to wild type); higher = more active; in vitro selection; Mg2+ level not given
Recorded reverse-splicing fitness split into classes bucket A (below 0.004), bucket B (0.004 to below 0.01), bucket C (0.01 or more)

INSERT INTO assay_data (variantnotation, label) VALUES
  ('A111C A120G A145G C169U', 'bucket C'),
  ('C82G A120C A145G C169A', 'bucket C'),
  ('C82G A120C A145U C150U C169G U176A', 'bucket C');

State the class of the variant shown: C82A A111U A120U A145C C150A U176A
bucket A

State the class of the variant shown: C82A A111G A145C C150G C169A U176G
bucket B

State the class of the variant shown: C82U A111C A120U A145U C150A U176C
bucket B

State the class of the variant shown: C82U A120C A145C C150G C169G U176C
bucket B

State the class of the variant shown: C82A A111C A120U C150U U176G
bucket A

State the class of the variant shown: C82G A120U A145U C150G C169A U176A
bucket A

State the class of the variant shown: C82G A120U A145C C150G C169G
bucket A

State the class of the variant shown: C82A A111U A120U C169U U176G
bucket A

State the class of the variant shown: C82A A111G A120U U176A
bucket B

State the class of the variant shown: C82U A111G A120G A145G C150A U176A
bucket B

State the class of the variant shown: A120U A145C C169G U176G
bucket A
